Entry source: paper PMC4784888

- System: m-OGT
- ASSAY_EXPLANATION: O-GlcNAcylation on nuclear hormone receptor interaction peptide microarray, m-OGT
- Type: biochemical, human
- SETUP_CONDITIONS: bacterial lysate containing m-OGT (7 μg/μL), 1 mM UDP-GlcNAc, 50 mM Tris-HCl pH 7.5, 30°C, FITC antibody fluorescence, corrected for signal without UDP-GlcNAc

RESIDUE_SEQUENCE: HGEDFSKVSQNPILTSLLQITGNG [MED1_591_614]
OGT isoforms activity, m: N (otherwise negative)
--
RESIDUE_SEQUENCE: HGSQNRPLLRNSLDDLLGPPSNA [NCOA3_MOUSE_1029_1051]
OGT isoforms activity, m: N (otherwise negative)
